# measured target: dAsCas12a S542R (Acidaminococcus sp., UniProt U2UMQ6 1-1307, S542R;D908A;E993A;D1235A)
# protocol details: Spec-seq (native PAGE EMSA with sequencing of bound and unbound); 25 mM Tris-HCl pH 7.4, 150 mM KCl, 5 mM MgCl2, 10% glycerol, 1 mM DTT, 40 ng/uL salmon sperm DNA; 400 nM Cas12a, 480 nM crRNA, 50 nM library, 37 C 1 h; native PAGE at room temperature; high values mean tight binding;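 note: relative affinity from the bound to unbound sequence frequency ratio in Spec-seq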
# run parameters: protein: recombinant
Please provide measured binding signal for the entries that follow.
Numbers only, in lnKA.

# binder, binding signal, lnKA
measured = [
    ("TCGG (dsDNA) DNA 1: GCTATCTAGTGCTCAGTACGCACTGTCGGAGGAAACTTCTGGCAGGACCAGGTCATGAGATCGGAAGAGCACACGTCTGAACTCCAGTCA DNA 2: TGACTGGAGTTCAGACGTGTGCTCTTCCGATCTCATGACCTGGTCCTGCCAGAAGTTTCCTCCGACAGTGCGTACTGAGCACTAGATAGC RNA: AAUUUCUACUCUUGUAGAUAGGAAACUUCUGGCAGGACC", -8.02),
    ("GTAA (dsDNA) DNA 1: GCTATCTAGTGCTCAGTACGCACTGGTAAAGGAAACTTCTGGCAGGACCAGGTCATGAGATCGGAAGAGCACACGTCTGAACTCCAGTCA DNA 2: TGACTGGAGTTCAGACGTGTGCTCTTCCGATCTCATGACCTGGTCCTGCCAGAAGTTTCCTTTACCAGTGCGTACTGAGCACTAGATAGC RNA: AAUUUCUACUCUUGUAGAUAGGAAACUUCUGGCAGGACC", -8.01),
    ("GCTG (dsDNA) DNA 1: GCTATCTAGTGCTCAGTACGCACTGGCTGAGGAAACTTCTGGCAGGACCAGGTCATGAGATCGGAAGAGCACACGTCTGAACTCCAGTCA DNA 2: TGACTGGAGTTCAGACGTGTGCTCTTCCGATCTCATGACCTGGTCCTGCCAGAAGTTTCCTCAGCCAGTGCGTACTGAGCACTAGATAGC RNA: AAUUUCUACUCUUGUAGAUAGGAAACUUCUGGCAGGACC", -7.86),
    ("ACAC (dsDNA) DNA 1: GCTATCTAGTGCTCAGTACGCACTGACACAGGAAACTTCTGGCAGGACCAGGTCATGAGATCGGAAGAGCACACGTCTGAACTCCAGTCA DNA 2: TGACTGGAGTTCAGACGTGTGCTCTTCCGATCTCATGACCTGGTCCTGCCAGAAGTTTCCTGTGTCAGTGCGTACTGAGCACTAGATAGC RNA: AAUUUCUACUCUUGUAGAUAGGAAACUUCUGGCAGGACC", -8.48),
    ("TGTG (dsDNA) DNA 1: GCTATCTAGTGCTCAGTACGCACTGTGTGAGGAAACTTCTGGCAGGACCAGGTCATGAGATCGGAAGAGCACACGTCTGAACTCCAGTCA DNA 2: TGACTGGAGTTCAGACGTGTGCTCTTCCGATCTCATGACCTGGTCCTGCCAGAAGTTTCCTCACACAGTGCGTACTGAGCACTAGATAGC RNA: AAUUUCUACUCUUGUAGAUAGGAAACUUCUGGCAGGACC", -7.46),
    ("CTCT (dsDNA) DNA 1: GCTATCTAGTGCTCAGTACGCACTGCTCTAGGAAACTTCTGGCAGGACCAGGTCATGAGATCGGAAGAGCACACGTCTGAACTCCAGTCA DNA 2: TGACTGGAGTTCAGACGTGTGCTCTTCCGATCTCATGACCTGGTCCTGCCAGAAGTTTCCTAGAGCAGTGCGTACTGAGCACTAGATAGC RNA: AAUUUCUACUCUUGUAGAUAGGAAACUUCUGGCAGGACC", -7.58),
]

Dear reader, for each entry below, please note its binding signal.
1. TCGC (dsDNA) DNA 1: GCTATCTAGTGCTCAGTACGCACTGTCGCAGGAAACTTCTGGCAGGACCAGGTCATGAGATCGGAAGAGCACACGTCTGAACTCCAGTCA DNA 2: TGACTGGAGTTCAGACGTGTGCTCTTCCGATCTCATGACCTGGTCCTGCCAGAAGTTTCCTGCGACAGTGCGTACTGAGCACTAGATAGC RNA: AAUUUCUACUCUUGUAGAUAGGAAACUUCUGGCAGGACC
2. TCCG (dsDNA) DNA 1: GCTATCTAGTGCTCAGTACGCACTGTCCGAGGAAACTTCTGGCAGGACCAGGTCATGAGATCGGAAGAGCACACGTCTGAACTCCAGTCA DNA 2: TGACTGGAGTTCAGACGTGTGCTCTTCCGATCTCATGACCTGGTCCTGCCAGAAGTTTCCTCGGACAGTGCGTACTGAGCACTAGATAGC RNA: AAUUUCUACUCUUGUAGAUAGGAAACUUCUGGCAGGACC
3. GTCG (dsDNA) DNA 1: GCTATCTAGTGCTCAGTACGCACTGGTCGAGGAAACTTCTGGCAGGACCAGGTCATGAGATCGGAAGAGCACACGTCTGAACTCCAGTCA DNA 2: TGACTGGAGTTCAGACGTGTGCTCTTCCGATCTCATGACCTGGTCCTGCCAGAAGTTTCCTCGACCAGTGCGTACTGAGCACTAGATAGC RNA: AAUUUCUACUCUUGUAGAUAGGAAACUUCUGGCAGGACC
4. ACCC (dsDNA) DNA 1: GCTATCTAGTGCTCAGTACGCACTGACCCAGGAAACTTCTGGCAGGACCAGGTCATGAGATCGGAAGAGCACACGTCTGAACTCCAGTCA DNA 2: TGACTGGAGTTCAGACGTGTGCTCTTCCGATCTCATGACCTGGTCCTGCCAGAAGTTTCCTGGGTCAGTGCGTACTGAGCACTAGATAGC RNA: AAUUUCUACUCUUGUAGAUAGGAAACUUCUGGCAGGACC

-7.58
-3.6
-6.96
-5.2
